Target: H7N9 HA (A/Shanghai/1/2013) (Influenza A virus A/Shanghai/1/2013 …, strain)
READOUT_NAME: binding result

binder="H7-Ab13 (antibody, V domains shown) VH: EVQLVESGPGLVKPSQTLSLTCTVSDGTIGSDAYHWSWIRQYPGRGLEWIGSFYYSGNTYYNPSLKSRLTISVDTSKNQFSLKLNSVTAADTAVYYCARNSAYCTDTRCYNGGGWFHPWGQGTTVTVSS VL: DIVMTQSPGTLSLSPGERATLSCRASQSVSSTYLAWYQQKPGQAPRFLIYGASRRATGIPDRFSGSGSGTDFTLTISRVEPEDFTVYYCQQYGSSPITFGQGTRLEIK" result=binds
binder="H7-Ab11 (antibody, V domains shown) VH: QVQLQESGPRLVKPSQTLSLTCAVSGGSITSNDYNWSWIRQHPGKGLEWIGYIYHSGNTFYNPALESRVSMSVDTSKNQFSLRLTSVTAADTAVYFCARTQRSTVAHIVGPVQGRFHFDYWSQGTLVTVSS VL: DIQMTQSPGTLSLSPGERVTLSCRASRSVSPYYLAWYQQKPGQAPRLLIYGSSTRATGIPDRFSGSGSGTDFTLTINKLEPEDFAIYYCQQYGRSSGFVFGPGTKVDIK" result=binds
